quantity: Ki

Query: Using Prothrombin (Homo sapiens, UniProt P00734) as the test system, report measured Ki of H-FSLLRN-NH2 [FSLLRN-NH2] .
Reply: > 10 µM

Query: Report Ki under test system Prothrombin (Homo sapiens, UniProt P00734) for H-SLIGKV-NH2 [CAS_190383-13-2] .
Reply: > 10 µM

---

pKi: −log10 of the molar value. Square brackets hold non-standard residues; d marks the D form. Peptide text beside a SMILES is read from it. * marks the point of attachment. Phe(4-F) = N[C@@H](Cc1ccc(F)cc1)C(=O)O; hArg = N=C(N)NCCCC[C@H](N)C(=O)O; Cha = N[C@@H](CC1CCCCC1)C(=O)O; X1 = CC(=O)C(Cc1ccccc1)N*
Provide the reported pKi of each item.

Query: Provide measured pKi on Prothrombin (Homo sapiens, UniProt P00734) for C[C@H](N)C(=O)N[C@@H](Cc1ccc(F)cc1)C(=O)N[C@@H](CCCN=C(N)N)C(=O)N[C@@H](CC1CCCCC1)C(=O)N[C@@H](CCCCN=C(N)N)C(=O)N[C@@H](Cc1ccccc1)C(N)=O (H-A[Phe(4-F)]R[Cha][hArg]F-NH2) please.
Reply: 7.62

Query: State recorded pKi with Prothrombin (Homo sapiens, UniProt P00734), entry CCC(C)C(NC(=O)C(Cc1ccc(O)cc1)NC(=O)C(NC(=O)C(CCCN=C(N)N)NC(=O)C(N)CC(=O)O)C(C)C)C(=O)NC(Cc1cnc[nH]1)C(=O)NC(Cc1cnc[nH]1)C(=O)N1CCCC1C(=O)NC(Cc1ccccc1)C(C)=O (centres undefined) [NSC_439662] (H-DRVYIHHP-X1; configuration not given here) , no comment.
Reply: < 5.00

Query: # assay system Prothrombin (Homo sapiens, UniProt P00734): give pKi of CC(C)C[C@H](NC(=O)[C@H](CC(C)C)NC(=O)[C@H](Cc1ccccc1)NC(=O)[C@@H](N)CO)C(=O)N[C@@H](CCCN=C(N)N)C(=O)O [SFLLR-OH]
Reply: < 5.00

Query: Give pKi for NC(N)=NCCCC(N)C(=O)N1CCCC1C(=O)N1CCCC1C(=O)NCC(=O)NC(Cc1ccccc1)C(=O)NC(CO)C(=O)N1CCCC1C(=O)NC(Cc1ccccc1)C(=O)O (centres undefined) [CAS_58-82-2] tested on Prothrombin (Homo sapiens, UniProt P00734).
Reply: < 5.00
